# Tested on: adenylyl cyclase (basal)
# procedure.summary: Enzyme assay adenylyl cyclase (basal)
# Type: biochemical, rat
Reported % Stimulation Relative to Control @ 10 μM values follow for various compounds
Just the number in %, nothing appended.

# count of solved cases: 3
[[record]]
smiles_string = "CC1(C)C(=O)N(c2ccc(C#N)c(C(F)(F)F)c2)C(=S)N1c1ccc(C(N)=O)c(F)c1"
number = 3

[[record]]
smiles_string = "CNC(=O)c1ccc(N2C(=O)N(c3ccc(C#N)c(C(F)(F)F)c3)C(=O)C2(C)C)cc1F"
number = 11

[[record]]
smiles_string = "CC1(C)C(=O)N(c2ccc(C#N)c(C(F)(F)F)c2)C(=O)N1c1ccc(C(N)=O)c(F)c1"
number = 4


The record that follows has no % Stimulation Relative to Control @ 10 μM shown yet.
Q: Return value of % Stimulation Relative to Control @ 10 μM for input `CC1(C)C(=O)N(c2ccc(C#N)c(C(F)(F)F)c2)C(=S)N1c1ccc(C(=O)O)c(F)c1` , no commentary.
Result: 0

----------
# study.target: Vasopressin V2 (h) (Homo sapiens)
# Construct: expressed in transfected cells; host or cells: CHO cells
# Sequence (P30518 whole entry): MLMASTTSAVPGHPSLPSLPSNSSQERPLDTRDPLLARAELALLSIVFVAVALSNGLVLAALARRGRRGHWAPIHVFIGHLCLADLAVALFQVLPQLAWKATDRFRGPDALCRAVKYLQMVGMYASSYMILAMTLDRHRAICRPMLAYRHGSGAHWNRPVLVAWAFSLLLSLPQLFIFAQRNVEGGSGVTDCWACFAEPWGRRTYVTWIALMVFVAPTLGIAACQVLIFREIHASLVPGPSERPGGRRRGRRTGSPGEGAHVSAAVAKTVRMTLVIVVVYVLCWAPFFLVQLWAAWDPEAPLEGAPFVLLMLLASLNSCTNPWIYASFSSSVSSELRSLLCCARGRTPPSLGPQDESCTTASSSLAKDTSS
# procedure.summary: Binding V2 (h) (ag)
# condition.notes: read-out: % Inhibition of Control Specific Binding @ 10 μM
readout.type: inhibition at 10 µM (%)
A number alone suffices; assume %.

// below: answered molecules
[[record]]
smiles_string = "CC1(C)C(=O)N(c2ccc(C#N)c(C(F)(F)F)c2)C(=S)N1c1ccc(C(=O)O)c(F)c1"
study_target = "Vasopressin V2 (h) (Homo sapiens)"
readout_type = "inhibition at 10 µM"
number = 5

[[record]]
smiles_string = "CC1(C)C(=O)N(c2ccc(C#N)c(C(F)(F)F)c2)C(=S)N1c1ccc(C(N)=O)c(F)c1"
study_target = "Vasopressin V2 (h) (Homo sapiens)"
readout_type = "inhibition at 10 µM"
number = 3

[[record]]
smiles_string = "CNC(=O)c1ccc(N2C(=O)N(c3ccc(C#N)c(C(F)(F)F)c3)C(=O)C2(C)C)cc1F"
study_target = "Vasopressin V2 (h) (Homo sapiens)"
readout_type = "inhibition at 10 µM"
number = -1


Q: State measured inhibition at 10 µM of the molecule `CC1(C)C(=O)N(c2ccc(C#N)c(C(F)(F)F)c2)C(=O)N1c1ccc(C(N)=O)c(F)c1` with Vasopressin V2 (h) (Homo sapiens).
Result: 4

----------
# study.target: Corticotropin Releasing Factor CRF1 (h) (Homo sapiens, UniProt P34998)
# Construct: expressed in transfected cells; host or cells: CHO cells
# Sequence (P34998 24-415): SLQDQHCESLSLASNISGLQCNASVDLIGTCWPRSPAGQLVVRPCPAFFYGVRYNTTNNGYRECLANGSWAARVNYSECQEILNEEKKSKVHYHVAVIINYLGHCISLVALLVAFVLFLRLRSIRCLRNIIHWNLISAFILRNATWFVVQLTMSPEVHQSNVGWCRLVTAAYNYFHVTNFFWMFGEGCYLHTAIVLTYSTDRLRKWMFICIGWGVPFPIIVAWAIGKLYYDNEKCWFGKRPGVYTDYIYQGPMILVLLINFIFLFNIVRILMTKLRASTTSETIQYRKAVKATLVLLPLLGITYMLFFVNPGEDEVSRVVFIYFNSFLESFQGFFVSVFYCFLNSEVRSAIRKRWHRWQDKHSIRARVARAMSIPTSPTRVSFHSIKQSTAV
# procedure.summary: Binding CRF1 (h) (ag)
# condition.notes: read-out: % Inhibition of Control Specific Binding @ 10 μM
readout.type: inhibition at 10 µM (%)
State just the number; it will be interpreted in %.

For orientation, consider the following solved cases.
[[record]]
smiles_string = "CC1(C)C(=O)N(c2ccc(C#N)c(C(F)(F)F)c2)C(=O)N1c1ccc(C(N)=O)c(F)c1"
readout_type = "inhibition at 10 µM"
number = -9

[[record]]
smiles_string = "CC1(C)C(=O)N(c2ccc(C#N)c(C(F)(F)F)c2)C(=S)N1c1ccc(C(=O)O)c(F)c1"
readout_type = "inhibition at 10 µM"
number = -4

[[record]]
smiles_string = "CNC(=O)c1ccc(N2C(=O)N(c3ccc(C#N)c(C(F)(F)F)c3)C(=O)C2(C)C)cc1F"
readout_type = "inhibition at 10 µM"
number = -23


Then there is this compound:
Q: In one line, give reported inhibition at 10 µM of the entry `CC1(C)C(=O)N(c2ccc(C#N)c(C(F)(F)F)c2)C(=S)N1c1ccc(C(N)=O)c(F)c1` .
Result: 1
